# systemName: Neuronal acetylcholine receptor subunit alpha-4/beta-2 (Rattus norvegicus, UniProt P09483+P12390)
# Sequence (P09483 whole entry): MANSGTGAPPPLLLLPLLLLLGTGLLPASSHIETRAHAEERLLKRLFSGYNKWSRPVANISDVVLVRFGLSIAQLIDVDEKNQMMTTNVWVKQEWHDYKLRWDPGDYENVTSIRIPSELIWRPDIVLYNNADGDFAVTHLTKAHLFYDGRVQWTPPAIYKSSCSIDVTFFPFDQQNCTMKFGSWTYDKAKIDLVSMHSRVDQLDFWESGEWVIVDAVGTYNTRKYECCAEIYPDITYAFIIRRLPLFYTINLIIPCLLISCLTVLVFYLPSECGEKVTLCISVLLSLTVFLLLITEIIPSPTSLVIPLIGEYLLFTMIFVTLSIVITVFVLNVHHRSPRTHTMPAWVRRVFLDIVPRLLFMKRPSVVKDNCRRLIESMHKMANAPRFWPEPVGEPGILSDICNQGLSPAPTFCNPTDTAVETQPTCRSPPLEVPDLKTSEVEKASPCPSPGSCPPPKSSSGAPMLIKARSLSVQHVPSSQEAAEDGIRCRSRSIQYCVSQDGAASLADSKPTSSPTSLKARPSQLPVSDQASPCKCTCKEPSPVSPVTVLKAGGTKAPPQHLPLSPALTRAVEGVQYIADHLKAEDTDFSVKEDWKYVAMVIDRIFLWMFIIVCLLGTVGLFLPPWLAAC
# Sequence (P12390 whole entry): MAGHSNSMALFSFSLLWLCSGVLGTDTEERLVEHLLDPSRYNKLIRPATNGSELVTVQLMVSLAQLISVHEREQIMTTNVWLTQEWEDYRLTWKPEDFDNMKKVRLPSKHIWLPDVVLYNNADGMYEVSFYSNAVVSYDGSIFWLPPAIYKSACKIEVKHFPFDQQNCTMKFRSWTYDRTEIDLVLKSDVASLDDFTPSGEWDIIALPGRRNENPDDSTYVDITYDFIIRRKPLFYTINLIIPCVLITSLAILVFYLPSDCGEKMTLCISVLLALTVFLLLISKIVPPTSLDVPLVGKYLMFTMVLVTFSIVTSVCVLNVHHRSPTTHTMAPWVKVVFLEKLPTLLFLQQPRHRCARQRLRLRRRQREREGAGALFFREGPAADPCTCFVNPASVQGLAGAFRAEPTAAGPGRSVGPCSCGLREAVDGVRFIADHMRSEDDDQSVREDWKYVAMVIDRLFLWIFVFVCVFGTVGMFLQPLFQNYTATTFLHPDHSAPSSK
# assayProcedure: Displacement of [3H]cytisine from alpha4beta2 nAChR in rat brain membrane after 3 hrs
Ki values by entry
Record the value in nM, omitting the unit from your answer.

{"columns": ["chemicalString", "endpointValue"],
 "data": [
  ["CC(=O)Nc1ccc(/C=C2\\CCCN=C2c2cccnc2)cc1", 420],
  ["CC(=O)Oc1ccc(/C=C2\\CCCN=C2c2cccnc2)cc1", 602],
  ["CCC(CC)Oc1cc(OC)ccc1/C=C1\\CCCN=C1c1cccnc1", 367]
]}

Now examine the next entry.
response.value for Nc1ccc(/C=C2\CCCN=C2c2cccnc2)cc1 (field: Ki) = 921

----------
Below, each entry is listed alongside its reported Ki.
# systemName: Neuronal acetylcholine receptor subunit alpha-4/beta-2 (Rattus norvegicus, UniProt P09483+P12390)
# assayProcedure: Displacement of [3H]cytisine from alpha4beta2 nAChR in rat brain membrane after 3 hrs

Consider the worked cases shown below.
{"columns": ["chemicalString", "reportedProperty", "endpointValue"],
 "data": [
  ["C(=C1/CCCN=C1c1cccnc1)/c1cc2ccccc2o1", "Ki", "772 nM"],
  ["COc1ccc(/C=C2\\CCCN=C2c2cccnc2)c(OC(C)C)c1", "Ki", "770 nM"],
  ["CCCc1ccc(/C=C2\\CCCN=C2c2cccnc2)cc1", "Ki", "51 nM"],
  ["CN(C)c1ccc(/C=C2\\CCCN=C2c2cccnc2)cc1", "Ki", "770 nM"]
]}

Looking up COc1cc(/C=C2\CCCN=C2c2cccnc2)cc(OC)c1OC , I found its Ki recorded as 669 nM

The measurements presented in this section are drawn from BindingDB's records for doi:10.1016/j.ejmech.2010.02.027.
